src = paper PMC9482650

# Target: DLG2_3, Q15700
# Assay Info: holdup assay
# Parameters: key: below the threshold = too weak to quantify, mostly under pKd 3.1 to 4
# Setup Conditions: plain residues with an end cap or a label only (N-terminal biotin on a linker: ado-ado)
Metric Name: pKd

INSERT INTO measurements (binder, metric_name, data_value) VALUES
  ('PLSPEQPTKL [TRIM50, Q86XT4]', 'pKd', 'below the threshold'),
  ('SARSRLSSNL [HCN2, Q9UL51]', 'pKd', 'below the threshold'),
  ('QHKTQLQTLI [BPIFA2, Q96DR5]', 'pKd', 'below the threshold'),
  ('TSQESEDTYL [TBC1D10A, Q9BXI6]', 'pKd', 'below the threshold'),
  ('QKNRKAQEDL [CES3, Q6UWW8]', 'pKd', 3.65),
  ('TSSMRGMDAV [RSRC2, Q7L4I2]', 'pKd', 'below the threshold'),
  ('SSALYGESDL [ACTN2, P35609]', 'pKd', 3.94),
  ('PAPSSGKDYV [CLDN1, O95832]', 'pKd', 'below the threshold');
